What IC50 was measured for each of the following?
biological target: Cathepsin S (Homo sapiens, UniProt P25774)
Sequence (P25774 whole entry): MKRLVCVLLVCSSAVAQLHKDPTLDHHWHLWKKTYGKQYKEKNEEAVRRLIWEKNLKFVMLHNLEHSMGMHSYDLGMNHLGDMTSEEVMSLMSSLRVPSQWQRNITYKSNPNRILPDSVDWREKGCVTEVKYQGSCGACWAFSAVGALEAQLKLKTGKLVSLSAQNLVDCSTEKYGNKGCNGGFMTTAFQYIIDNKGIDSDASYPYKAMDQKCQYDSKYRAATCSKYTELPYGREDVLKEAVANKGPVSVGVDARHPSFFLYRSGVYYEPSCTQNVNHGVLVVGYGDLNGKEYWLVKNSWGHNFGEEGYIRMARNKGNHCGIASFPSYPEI
Answers are plain numbers, in nM.

For orientation, consider the following solved cases.
# compound, result-value
measured = [
    ("CCN1CCC(CCOc2ccc(-c3nc(C#N)nc4c3ccn4CC3CCOC3)cc2C(F)(F)F)CC1 (configuration not stated)", 3.9),
    ("Cn1ccc2c(-c3ccc(OCCC4CC5CCC(C4)N5)c(C(F)(F)F)c3)nc(C#N)nc21 (configuration not stated)", 3.6),
    ("CCN1CCC(CCOc2ccc(-c3nc(C#N)nc4c3ccn4C)cc2C(F)(F)F)C1 (configuration not stated)", 2.1),
]

I have 4 compounds here; please give me IC50 for each one.
1. Cn1c(C(F)(F)F)nc2c(-c3cnc(OCCC4CCNCC4)c(C(F)(F)F)c3)nc(C#N)nc21
2. CCN1CCC(CCOc2ncc(-c3nc(C#N)nc4c3ccn4CC3CCOC3)cc2C(F)(F)F)CC1 (configuration not stated)
3. CCN1CCC(CCOc2ncc(-c3nc(C#N)nc4c3ncn4CC3CCOC3)cc2C(F)(F)F)CC1 (configuration not stated)
4. Cn1ccc2c(-c3cnc(OCCC4CCCNC4)c(C(F)(F)F)c3)nc(C#N)nc21 (configuration not stated)

Reply:
1: 3.3; 2: 2.6; 3: 2; 4: 2.7
